Test: Cytotoxicity against human PC3 cells assessed as inhibition of cell viability at 25 uM after 48 hrs by MTT assay relative to control
Type: functional
Conditions: PC-3, 48 h
Each entry gets rule not met if its inhibition at 25 µM stays under 30%, and rule met if its inhibition at 25 µM is 30% or above.

INSERT INTO assay_data (smiles_str, category_label) VALUES
  ('COc1ccc(-c2c(C)nn(-c3ccccc3)c2OC)cc1', 'rule not met'),
  ('COc1c(Br)c(C)nn1-c1ccccc1', 'rule not met'),
  ('COc1c(-c2ccc(O)cc2)c(C)nn1-c1ccccc1', 'rule not met'),
  ('COc1c(-c2ccsc2)c(C)nn1-c1ccccc1', 'rule met'),
  ('COc1c(-c2ccc(F)cc2)c(C)nn1-c1ccccc1', 'rule met'),
  ('COc1ccc(CNC(=O)c2c(C)nn(-c3ccccc3)c2OC)cc1', 'rule met');

These entries and their values trace back to ChEMBL document CHEMBL3792344.
